The measured values listed here are drawn from patent US20240391948A1.

Please respond with reported IC50 for every item in the list.
test system: U937 cells (human monocytic cell line); assay: BzATP-induced IL-1β secretion inhibition in PMA-differentiated U937 cells; assay type: cell-based; conditions: U-937, U937 cells differentiated with PMA, read-out: IL-1β production inhibition grade (IC50)

[
  {
    "MOLECULAR_STRING": "C[C@H](CCC(=O)N(CCS(=O)(=O)O)C1CCOCC1)[C@H]1CC[C@H]2[C@@H]3CC[C@@H]4C[C@H](O)CC[C@]4(C)[C@H]3C[C@H](O)[C@]12C",
    "IC50": "50 to 100 nM"
  },
  {
    "MOLECULAR_STRING": "C[C@H](CCC(=O)N(CCS(=O)(=O)O)CC(N)=O)[C@H]1CC[C@H]2[C@@H]3CC[C@@H]4C[C@H](O)CC[C@]4(C)[C@H]3C[C@H](O)[C@]12C",
    "IC50": "100 to 200 nM"
  },
  {
    "MOLECULAR_STRING": "C[C@H](CCC(=O)N1CCC[C@@H]1CS(=O)(=O)O)[C@H]1CC[C@H]2[C@@H]3CC[C@@H]4C[C@H](O)CC[C@]4(C)[C@H]3CC[C@]12C",
    "IC50": "50 to 100 nM"
  },
  {
    "MOLECULAR_STRING": "C[C@H](CCC(=O)NCCCS(=O)(=O)O)[C@H]1CC[C@H]2[C@@H]3CC[C@@H]4C[C@H](O)CC[C@]4(C)[C@H]3C[C@H](O)[C@]12C",
    "IC50": "< 50 nM"
  }
]

Now consider a different molecule.
Bench note: what IC50 did `C[C@H](CCC(=O)N[C@H](CO)CS(=O)(=O)O)[C@H]1CC[C@H]2[C@@H]3CC[C@@H]4C[C@H](O)CC[C@]4(C)[C@H]3CC[C@]12C` show? < 50 nM
